Source of measurements: paper PMC9090415

# Experimental target: P. falciparum apicoplast DNA polymerase (Pf-apPOL) (Plasmodium falciparum)
# Sequence (Q8ILY1 entry or part of it): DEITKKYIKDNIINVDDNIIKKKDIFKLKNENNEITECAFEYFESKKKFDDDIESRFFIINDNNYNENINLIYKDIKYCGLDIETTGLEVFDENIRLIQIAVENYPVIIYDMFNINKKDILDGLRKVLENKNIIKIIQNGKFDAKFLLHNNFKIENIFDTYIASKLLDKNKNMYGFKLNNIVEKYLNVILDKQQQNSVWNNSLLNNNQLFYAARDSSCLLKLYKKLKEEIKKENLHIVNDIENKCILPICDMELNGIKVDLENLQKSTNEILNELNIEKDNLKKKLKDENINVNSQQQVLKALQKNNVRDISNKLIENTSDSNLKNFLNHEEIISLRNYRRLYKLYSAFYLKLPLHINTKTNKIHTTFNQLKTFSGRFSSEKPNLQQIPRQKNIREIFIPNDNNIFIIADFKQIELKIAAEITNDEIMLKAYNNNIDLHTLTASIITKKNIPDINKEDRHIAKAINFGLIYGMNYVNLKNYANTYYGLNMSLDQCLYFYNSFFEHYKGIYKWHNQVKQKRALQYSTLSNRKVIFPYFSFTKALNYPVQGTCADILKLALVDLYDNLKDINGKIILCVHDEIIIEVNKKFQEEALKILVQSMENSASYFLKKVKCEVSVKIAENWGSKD
# Protocol: Fluorescence-based high-throughput DNA polymerase assay (molecular beacon), primary screen and dose-response;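 also: test concentration in µM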
# Format: biochemical
# Recorded conditions: DRC-1; 180'; concentration 40
The entries below are paired with their reported % inhibition apPOL 180'.
// return numeric value only (unit: %, not printed)

* Cc1ccc2c(C(=O)NCCc3cccnc3)cc(NC(=O)C(C)C)cc2n1 [KU0206096] | 41.4073
* CCCCCCCCCCCCCCCCCC(=O)CCN(C)C [KU0271928] | 44.4373
* O=C(Nc1nnc(-c2cccs2)o1)c1ccc([N+](=O)[O-])o1 [Molecule 74] | 25.388
* CCCCCCCCCCCC1SCC(C(=O)O)N1C(C)=O (centres unmarked) [Molecule 72] | 17.8626

In the following, a different molecule is considered.
Input OC(C#Cc1ccccc1)c1ccco1 (centres unmarked) [Molecule 95, OC(c1ccco1)C#Cc1ccccc1] . Output % inhibition apPOL 180': 83.0192
